# target.under.test: PI3Kalpha (Homo sapiens (Human), UniProt P42336)
# Sequence (P42336 whole entry): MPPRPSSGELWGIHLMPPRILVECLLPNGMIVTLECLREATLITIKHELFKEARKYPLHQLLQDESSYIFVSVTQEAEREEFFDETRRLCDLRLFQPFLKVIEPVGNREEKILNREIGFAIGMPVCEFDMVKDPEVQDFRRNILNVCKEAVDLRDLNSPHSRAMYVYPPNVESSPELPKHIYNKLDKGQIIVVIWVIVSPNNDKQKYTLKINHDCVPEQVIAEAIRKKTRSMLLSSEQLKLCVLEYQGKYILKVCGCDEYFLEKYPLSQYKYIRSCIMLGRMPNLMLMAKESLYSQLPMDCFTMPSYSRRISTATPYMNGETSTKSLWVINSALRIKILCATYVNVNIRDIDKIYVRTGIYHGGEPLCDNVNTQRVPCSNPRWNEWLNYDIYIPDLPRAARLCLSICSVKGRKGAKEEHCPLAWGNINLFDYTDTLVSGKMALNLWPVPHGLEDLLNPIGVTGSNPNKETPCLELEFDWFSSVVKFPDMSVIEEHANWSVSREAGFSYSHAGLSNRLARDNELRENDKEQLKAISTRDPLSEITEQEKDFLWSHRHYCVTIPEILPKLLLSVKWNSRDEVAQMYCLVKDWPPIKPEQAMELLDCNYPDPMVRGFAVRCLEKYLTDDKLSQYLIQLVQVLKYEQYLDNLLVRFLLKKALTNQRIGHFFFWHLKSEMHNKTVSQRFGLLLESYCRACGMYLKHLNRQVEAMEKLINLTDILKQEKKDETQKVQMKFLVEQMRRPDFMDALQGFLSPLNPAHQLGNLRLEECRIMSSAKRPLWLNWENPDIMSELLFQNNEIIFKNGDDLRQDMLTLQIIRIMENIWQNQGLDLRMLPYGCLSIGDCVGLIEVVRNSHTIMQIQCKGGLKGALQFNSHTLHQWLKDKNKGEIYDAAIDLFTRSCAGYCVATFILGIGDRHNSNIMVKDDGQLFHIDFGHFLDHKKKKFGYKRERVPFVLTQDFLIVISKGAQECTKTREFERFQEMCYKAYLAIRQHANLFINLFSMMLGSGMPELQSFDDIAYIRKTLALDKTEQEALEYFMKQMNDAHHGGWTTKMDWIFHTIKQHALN
# procedure.text: Inhibition of PI3Kalpha-induced PIP-2 phosphorylation (filter-binding assay)
# run.conditions: 33P-ATP, p85alpha/His-p110alpha, read-out: IC50 PI3Kα
Recorded IC50 for the following molecules

Completed entries (count: 3):
{"smiles.entry": "Cc1ncc(C#Cc2c(C)ncnc2N2CCOCC2)cc1NS(=O)(=O)c1c(C)noc1C", "IC50": "2 nM"}
{"smiles.entry": "Cc1ncc(C#Cc2c(C)ncnc2N2CCOCC2)cc1NS(=O)(=O)c1ccco1", "IC50": "2 nM"}
{"smiles.entry": "COC1CCN(c2ncnc(C)c2C#Cc2cnc(C)c(NS(=O)(=O)c3ccccc3)c2)CC1", "IC50": "2 nM"}

IN: Consider the molecule CC(=O)N1CCN(c2ncnc(C)c2C#Cc2cnc(C)c(NS(=O)(=O)c3ccccc3)c2)CC1 and give its measured IC50.
OUT: 2 nM

IN: Reported IC50 for CCc1ncnc(N2CCCCC2)c1C#Cc1cnc(C)c(NS(C)(=O)=O)c1 : what is it?
OUT: 2 nM

----------
# pIC50 listing for each entry below
# target.under.test: PI3Kalpha (Homo sapiens (Human))
# procedure.text: Inhibition of PI3Kalpha-induced PIP-2 phosphorylation (filter-binding assay)
# run.conditions: 33P-ATP, p85alpha/His-p110alpha, read-out: IC50 PI3Kα
The scale used: pIC50 is minus the common logarithm of the concentration in molar units.

{"compound": "CCc1ncnc(N2CCOCC2)c1C#Cc1cnc(OC)c(NS(=O)(=O)CCOC)c1 [Example I-78]", "pIC50": 8.70}
{"compound": "COc1ncc(C#Cc2c(C)ncnc2N2CCOCC2)cc1NS(=O)(=O)c1ccc(Cl)cc1 [Example I-84]", "pIC50": 9.52}

Now let's try a different one.
IN: Which pIC50 value belongs to Cc1ncc(C#Cc2c(C)ncnc2N2CCOCC2)cc1NS(=O)(=O)c1cc(F)cc(F)c1 [Example I-31] ?
OUT: 9.01

----------
# target.under.test: PI3Kalpha (Homo sapiens (Human), UniProt P42336)
# procedure.text: Inhibition of PI3Kalpha-induced PIP-2 phosphorylation (filter-binding assay)
# run.conditions: 33P-ATP, p85alpha/His-p110alpha, read-out: IC50 PI3Kα
# Description: Inhibition of PI3Kalpha-Induced PIP-2 Phosphorylation This PI3Kalpha assay provides an IC50 value indicative of the activity of the compounds to inhibit PI3 kinase alpha activity. […] The plate bottom is sealed with Perkin Elmer white adhesive foil and 25 μl/well Microscint( ) are added, the top is covered with transparent adhesive foil and the plate is measured with Wallac Trilux 1450 Microbeta Counter. […]
Documented IC50 across a set of molecules
Just the number in nM, nothing appended.

# example entries with known answers
{"smiles.entry": "Cc1cc(S(=O)(=O)Nc2cc(C#Cc3c(C)ncnc3N3CCOCC3)cnc2C)c(C)s1", "target.under.test": "PI3Kalpha (Homo sapiens (Human), UniProt P42336)", "output.unit": "nM", "measured.value": 0.55}
{"smiles.entry": "CCc1ncnc(N2CCOCC2)c1C#Cc1cnc(OC)c(NS(=O)(=O)c2ccc(F)cc2F)c1", "target.under.test": "PI3Kalpha (Homo sapiens (Human), UniProt P42336)", "output.unit": "nM", "measured.value": 0.63}
{"smiles.entry": "Cc1ncc(C#Cc2c(C)ncnc2N(C)C2CCOCC2)cc1NS(=O)(=O)c1ccc(F)cc1F", "target.under.test": "PI3Kalpha (Homo sapiens (Human), UniProt P42336)", "output.unit": "nM", "measured.value": 0.86}
{"smiles.entry": "CCc1ncnc(N2CCOCC2)c1C#Cc1cnc(OC)c(NS(=O)(=O)c2ccccc2)c1", "target.under.test": "PI3Kalpha (Homo sapiens (Human), UniProt P42336)", "output.unit": "nM", "measured.value": 0.59}
{"smiles.entry": "Cc1ncc(C#Cc2c(C)ncnc2N2CCOCC2)cc1NS(=O)(=O)c1ccoc1", "target.under.test": "PI3Kalpha (Homo sapiens (Human), UniProt P42336)", "output.unit": "nM", "measured.value": 1}
{"smiles.entry": "CCc1ncnc(N2CCOCC2)c1C#Cc1cnc(OC)c(NS(=O)(=O)C2CC2)c1", "target.under.test": "PI3Kalpha (Homo sapiens (Human), UniProt P42336)", "output.unit": "nM", "measured.value": 1}

IN: Entry CCc1ncnc(N2CCC(C)(O)CC2)c1C#Cc1cnc(C)c(NS(C)(=O)=O)c1 has what IC50?
OUT: 0.55

IN: # get_value(readout='IC50', item= CCc1ncnc(N2CCOCC2)c1C#Cc1cnc(OC)c(NS(C)(=O)=O)c1 )
OUT: 1

IN: I have this molecule here, Cc1ncc(C#Cc2c(C)ncnc2N2CCCCC2)cc1NS(=O)(=O)c1ccc(F)cc1F , and I need its recorded IC50.
OUT: 0.85

IN: I would be grateful if you could share the reported IC50 for Cc1ncc(C#Cc2c(C)ncnc2N2CCN(C)CC2)cc1NS(=O)(=O)c1ccc(F)cc1F .
OUT: 1
